- System: NIH3T3
- Protocol notes: Cytotoxic Profiling of Annotated Libraries Using Quantitative High-Throughput Screening (AID 1296008); also: % is scaled to controls: 0 for no effect and ±100 for the full control effect; nearly all actives have a fitted effect of over 60% in size
- Cond: Five cell lines viability, CellTiter-Glo ATP luminescence, 48-72 h; hits give low values
Results filed as inconclusive are left out. Active and inactive are the calls of the source. Calls follow the shape of the dose curve; as a rule, active = well fitted inhibition curve with a large enough effect; inconclusive = small, poorly fitted or top-dose-only effect; inactive = flat fitted curve, though single readings scatter.
Catalogue of max response readings, one per entry.

{"columns": ["Compound", "Tgt", "max response"],
 "data": [
  ["CCN(CC)CCNC(=O)COc1ccc(OC)cc1", "NIH3T3", "-6.7% (inactive)"],
  ["NCCNc1cccc2ccccc12", "NIH3T3", "0.794% (inactive)"],
  ["CCOc1ccccc1OCCN[C@H](C)Cc1ccc(OC)c(S(N)(=O)=O)c1", "NIH3T3", "2.8% (inactive)"],
  ["CCOC(=O)c1ccc(N)cc1", "NIH3T3", "-0.465% (inactive)"],
  ["O=C(O)c1ccc(S(=O)(=O)N(Cl)Cl)cc1", "NIH3T3", "-3.94% (inactive)"],
  ["CCN1CCN(C(=O)N[C@@H](C(=O)N[C@@H]2C(=O)N3C(C(=O)O)=C(CSc4nnnn4C)CS[C@H]23)c2ccc(O)cc2)C(=O)C1=O", "NIH3T3", "-3.36% (inactive)"],
  ["CN1CCN(c2c(F)cc3c(=O)c(C(=O)O)cn4c3c2SCC4)CC1", "NIH3T3", "-3.6% (inactive)"],
  ["CCCCCCCCCCCCCC(=O)OC(C)C", "NIH3T3", "2.35% (inactive)"],
  ["FC1(F)C(F)(F)C(F)(F)C2(F)C(F)(F)C(F)(F)C(F)(F)C(F)(F)C2(F)C1(F)F (stereo unspecified)", "NIH3T3", "1.4% (inactive)"],
  ["Cc1cc(NS(=O)(=O)c2ccc(N)cc2)nc(C)n1", "NIH3T3", "4.17% (inactive)"],
  ["CC(=O)Nc1ccc(S(=O)(=O)Nc2ccc([N+](=O)[O-])cc2)cc1", "NIH3T3", "3.15% (inactive)"],
  ["O=S(c1cc(Cl)cc(Cl)c1O)c1cc(Cl)cc(Cl)c1O", "NIH3T3", "1.36% (inactive)"],
  ["Cl/C(=C\\n1cncn1)c1ccc(Cl)cc1Cl", "NIH3T3", "0.11% (inactive)"],
  ["CC(C)[C@@H]1CC[C@@H](C)CC1=O", "NIH3T3", "4.81% (inactive)"],
  ["CC1(C)OC[C@@H]2O[C@@]3(C(=O)O)OC(C)(C)O[C@H]3[C@@H]2O1", "NIH3T3", "-5.58% (inactive)"],
  ["NC(=O)n1c(O)c(C(=O)c2cccs2)c2cc(Cl)ccc21", "NIH3T3", "0.218% (inactive)"]
]}

----------
- Protocol notes: qHTS of pediatric cancer cell lines to identify multiple opportunities for drug repurposing: Primary screen for U-2 OS cells (AID 1347096); also: nearly all actives have a fitted effect of over 50% in size
- Cond: U-2 OS viability, CellTiter-Glo luminescence, 48 h; series mostly up to 46 µM
Inconclusive results are not listed. Activity calls are given as the source filed them. Calls come from the whole dose curve; as a rule, active = well fitted cell-killing curve with a large enough effect; inconclusive = small, poorly fitted or top-dose-only effect; inactive = flat fitted curve, though single readings scatter.
Possible outcomes: active, inactive

{"columns": ["Molecule", "Label value"],
 "data": [
  ["Cc1cccc(C)c1NC(=O)c1ccccc1C(=O)O", "inactive"],
  ["O=S(c1cc(Cl)cc(Cl)c1O)c1cc(Cl)cc(Cl)c1O", "inactive"],
  ["O=C1C(CCS(=O)c2ccccc2)C(=O)N(c2ccccc2)N1c1ccccc1 (configuration not stated)", "inactive"],
  ["Cc1cc(C)cc(OCC2CNC(=O)O2)c1 (configuration not stated)", "inactive"],
  ["CC(C)(Cc1c[nH]c2ccccc12)NCC(O)COc1ccccc1C#N (configuration not stated)", "inactive"],
  ["COc1ccc(/C=N/NC(=O)c2ccncc2)cc1OC", "inactive"],
  ["CCCCOC(=O)CC(CC(=O)OCCCC)(OC(C)=O)C(=O)OCCCC", "inactive"],
  ["O=C1OC(CN2CCOCC2)CN1/N=C/c1ccc([N+](=O)[O-])o1 (configuration not stated)", "inactive"],
  ["CC(=O)Nc1ncc([N+](=O)[O-])s1", "inactive"],
  ["C/C=C/C=N/NC(=O)c1ccncc1", "inactive"],
  ["Cc1cccc(C)c1NC(=O)CN1CCCCCC1", "inactive"],
  ["CN1CCC[C@@H]1CCO[C@](C)(c1ccccc1)c1ccc(Cl)cc1", "inactive"],
  ["O=c1[nH]c(=O)n([C@H]2C[C@H](O)[C@@H](CO)O2)cc1F", "inactive"],
  ["NCc1ccccc1Sc1ccccc1CO", "inactive"],
  ["Cc1ccc(S(=O)(=O)NC(=O)NC2CCCC2)cc1", "inactive"],
  ["O=C(CCN1CCN2CCCC2C1)N1c2ccccc2Sc2ccc(Cl)cc21 (configuration not stated)", "inactive"],
  ["CC(C)Cc1ccc(CC(=O)O)cc1", "inactive"],
  ["C[N+]1(C)CCC(=C(c2ccccc2)c2ccccc2)CC1", "inactive"],
  ["C[C@H]1[C@H]2CC[C@H]3[C@@H]4CC=C5C[C@@H](N(C)C)CC[C@]5(C)[C@H]4CC[C@]23CN1C", "inactive"],
  ["CC(C)=CCOc1ccc(/C=C/C(=O)c2ccc(OCC=C(C)C)cc2OCC(=O)O)cc1", "inactive"],
  ["CC1(COc2ccc(CC3SC(=O)NC3=O)cc2)CCCCC1 (configuration not stated)", "inactive"],
  ["COc1ccc(CCN(C)CCCN2CCc3cc(OC)c(OC)cc3CC2=O)cc1OC", "inactive"],
  ["Cc1cc2c(OCC(CNC(C)(C)C)OC(=O)c3ccccc3)cccc2[nH]1 (configuration not stated)", "inactive"],
  ["O=S(=O)(O)c1ccc(O)cc1", "inactive"],
  ["CCN1/C(=C/C=C/c2sc3ccccc3[n+]2CC)Sc2ccccc21", "active"],
  ["C[N+]12CCC(CC1)C(OC(=O)C(O)(c1ccccc1)c1ccccc1)C2 (configuration not stated)", "inactive"],
  ["CCNC(=O)/C=C/c1cccc(Br)c1", "inactive"],
  ["N/C(=N\\N=C\\c1ccc(Cl)cc1)N/N=C/c1ccc(Cl)cc1", "inactive"],
  ["CC(C)CCCC(C)N (configuration not stated)", "inactive"],
  ["O=C(CN1CCN(Cc2ccc3c(c2)OCO3)CC1)N1c2ccccc2Sc2ccccc21", "inactive"],
  ["CCCCc1cc2ccccc2c(OCCN(C)C)n1", "inactive"],
  ["CC1=C(C(=O)O)N2C(=O)[C@@H](NC(=O)[C@H](N)c3ccccc3)[C@H]2SC1", "inactive"],
  ["CCCCN1C[C@H](O)[C@@H](O)[C@H](O)[C@H]1CO", "inactive"],
  ["Cl/C(=C\\n1cncn1)c1ccc(Cl)cc1Cl", "inactive"],
  ["CCCc1ncc(C[n+]2ccccc2C)c(N)n1", "inactive"],
  ["CCNC(=O)NCc1cccc(Cl)c1", "inactive"],
  ["COc1ccc(C(=O)c2ccccc2O)c(O)c1", "inactive"],
  ["O=C1C(O)=C(O)C(=O)C(O)=C1O", "inactive"],
  ["Cc1c[nH]c2ccccc12", "inactive"],
  ["O=C(O)CCC(=O)Nc1ccc(S(=O)(=O)Nc2nccs2)cc1", "inactive"],
  ["COc1ccc(-c2cc(C(F)F)nn2-c2ccc(S(N)(=O)=O)cc2)cc1F", "inactive"],
  ["O=C(NCCc1c[nH]c2ccccc12)c1cccnc1", "inactive"],
  ["CCCCCCCCCCCCOCCOCCOCCOCCOCCOCCOCCOCCOCCO", "inactive"],
  ["CCOC(=O)[C@@](C)(N)Cc1ccc(O)c(O)c1", "inactive"],
  ["C[C@@H](O)[C@H]1C(=O)N2C(C(=O)O)=C(S[C@@H]3CN[C@H](CNS(N)(=O)=O)C3)[C@H](C)[C@H]12", "inactive"],
  ["CCOC(=O)Nc1ccc2c(c1)N(C(=O)CCN1CCOCC1)c1ccccc1S2", "inactive"],
  ["CC(=C(CCOC(=O)C(C)C)SSC(CCOC(=O)C(C)C)=C(C)N(C=O)Cc1cnc(C)nc1N)N(C=O)Cc1cnc(C)nc1N", "inactive"]
]}
